Quantity measured: glass transition temperature (°C)

Prompt: Which glass transition temperature is listed for *Oc1ccc(NC(=O)c2ccc(*)cc2)cc1 (repeat unit) ?
Response: 225.00

1 = *Oc1ccc(-c2ccc(OC(=O)/C=C/c3ccc(/C=C/C(*)=O)cc3)cc2)cc1 (repeat unit)
2 = *CNC(=O)OCc1ccc(COC(=O)NCc2ccc(C(C)(C)c3ccc(*)o3)o2)o1 (repeat unit)
Prompt: Between item 1 and item 2 , which reported glass transition temperature is smaller? Respond with the label that goes with your answer.
Response: 2

I = */C(C#N)=C/c1ccc(N(CC)Cc2ccccc2CN(CC)c2ccc(/C=C(\C#N)S(*)(=O)=O)cc2)cc1 (repeat unit)
II = */C=C(\C#N)C(=O)OCCCCCCOC(=O)/C(C#N)=C/c1ccc2c(c1)c1cc(*)ccc1n2CCCCCCCCCCCn1c2ccccc2c2ccccc21 (repeat unit)
III = *CCCCOC(=O)c1ccc(N/C=N/c2ccc(C(=O)O*)cc2)cc1 (repeat unit)
IV = *c1ccc(-c2nc3cc(Oc4ccc5nc(*)c(-c6ccccc6)nc5c4)ccc3nc2-c2ccccc2)cc1 (repeat unit)
Prompt: Let's sort these by glass transition temperature, smallest first. Go ahead? Ranked list of labels, please, in the requested order.
Response: II, III, I, IV
(II: 63.00 °C, III: 91.00 °C, I: 190.00 °C, IV: 326.00 °C)
